// data source = PubChem BioAssay AID686978

# test: qHTS for Inhibitors of human tyrosyl-DNA phosphodiesterase 1 (TDP1): qHTS in cells in absence of CPT; also: nearly all actives have a fitted effect of over 55% in size
# particulars: DT40 Tdp1-/- hTDP1 cells, no CPT, ATP luminescence, 48 h; series mostly up to 46.2 µM
Among all 420,000 compounds or so, about 64,000 (15%) were called active. About 27% were inconclusive and are not listed. Calls follow the shape of the dose curve; as a rule, active = well fitted inhibition curve with a large enough effect; inconclusive = small, poorly fitted or top-dose-only effect; inactive = flat fitted curve, though single readings scatter. The full list was thinned out, with actives kept by preference.
Choose one outcome from this list and give only that: True for active, False for inactive

Consider the worked cases shown below.
# molecule, label_value
data = [
    ("CC1CCCN1CCC(C(N)=O)(c1ccccc1)c1ccccc1 (stereo unspecified)", "False"),
    ("CCC1(CC(C)c2ccccc2)C(=O)NC(=O)NC1=O (stereo unspecified)", "False"),
    ("COc1ccc(Cn2c(O)c(/C=C3/C=CC=N3)c(=O)[nH]c2=O)cc1", "True"),
]

Next:
**Query** Would you mind telling me which call this test gave O=C(Nc1cccc2ccccc12)N1CCC2(CC1)OCCO2 ?
**Result** False
